assay: NCI Yeast Anticancer Drug Screen. Data for the sgs1 strain (AID 173); conditions: S. cerevisiae sgs1 mutant, at 100.0 µM
This is part of a sample that, as a whole, favours compounds with a hit. Of some 79,000 tested, about 15% had one in any assay. The source made the active and inactive calls. No stated cut-off is given here; in the data, active means growth inhibition above about 70%; inactive means the rest.
Outcome field: choose from active, inactive

Prompt line: Outcome logged for "Oc1ccc(Cl)cc1Cc1ccccc1" in this assay:
Response line: active

Prompt line: Outcome logged for CC[C@]1(O)CC(OC2CC(N(C)C)C(O)C(C)O2)c2c(cc3c(c2O)C(=O)c2c(O)cccc2C3=O)[C@@H]1C(=O)OC (stereo not given in full) in this assay:
Response line: active

Prompt line: Outcome logged for COc1cc(C2c3cc4c(cc3[C@@H](Nc3ccc(N)cc3)C3COC(=O)[C@H]23)OCO4)cc(OC)c1O (stereo not given in full) in this assay:
Response line: active

Prompt line: Outcome logged for O=C1C2CC(Cl)C(SSC3CC4C(=O)N(SC(Cl)(Cl)C(Cl)Cl)C(=O)C4CC3Cl)CC2C(=O)N1SC(Cl)(Cl)C(Cl)Cl (stereo not given) in this assay:
Response line: active

Prompt line: Outcome logged for "O=[N+]([O-])c1ccc(-n2nc3ccc4c(no[n+]4[O-])c3[n+]2[O-])c([N+](=O)[O-])c1" in this assay:
Response line: inactive

Sourced from PubChem BioAssay (NCI)
